The reader will find reported TGI values listed item by item below.
test system: ACHN renal; assay: NCI tumour cell line growth inhibition, 48 h

{"molecule": "COc1ccc(-n2c(-c3ccccc3)cc(-c3cccs3)c2-c2cccs2)cc1", "TGI": "> 100 µM"}
{"molecule": "C[CH2][Sn]([CH2]C)([O]C(=O)c1cc(OC)c(OC)c(OC)c1)[O][Sn]([CH2]C)([CH2]C)[O]C(=O)c1cc(OC)c(OC)c(OC)c1", "TGI": "40.8 µM"}
{"molecule": "COc1cc(/C=C2\\N=C(c3ccccc3)N(/N=C/c3cc4cc(C)ccc4nc3Cl)C2=O)ccc1O", "TGI": "> 100 µM"}
{"molecule": "OCCC#Cc1ccccc1C#Cc1ccccc1", "TGI": "36.4 µM"}
{"molecule": "c1ncc(C23C4C5C6C4C2C6C53)[nH]1 (stereo unspecified)", "TGI": "> 100 µM"}
{"molecule": "CC(C)c1cccc(C(C)C)c1NC(=S)Nc1ccccc1", "TGI": "> 100 µM"}

Problem: Would you mind telling me what TGI value was observed for CCN1N=CSC12C(=O)N(c1ccccc1)C(=O)N2c1ccccc1 (stereo unspecified) ?
Result: > 100 µM

Problem: Would you mind telling me what TGI value was observed for "CC(=O)Nc1ccccc1S(=O)(=O)c1c(-c2c(C)c(Cl)c(C)c(Cl)c2C)noc1C" ?
Result: > 100 µM

Problem: Would you mind telling me what TGI value was observed for "O=C(CCl)Nc1ccc(-c2nc3ccccc3s2)cc1" ?
Result: 13.8 µM

Problem: Would you mind telling me what TGI value was observed for COc1cccc(C2C3=C(COC3=O)N(CCO)c3cc4c(cc32)CCC4)c1 (stereo unspecified) ?
Result: > 50 µM

Problem: Would you mind telling me what TGI value was observed for "Cc1ccc(C)c(NC(=O)CCC(=O)CC(=O)C(C)(C)C)c1" ?
Result: > 100 µM

---

system: MALME-3M melanoma; experiment: NCI tumour cell line growth inhibition, 48 h
measuredQuantity: TGI

Some entries whose results are on file:
{"compound": "COc1ccc(-c2c(C(=O)Nc3ccccc3)c(-c3ccccc3)n(C3OC(CO)C(O)C(O)C3O)c(=S)c2C#N)cc1 (centres undefined)", "target": "MALME-3M melanoma", "TGI": "> 100 µM"}
{"compound": "Cc1c(/C=N\\NC(=S)N(C)CCN(C)C(=S)N/N=C\\c2c(C)n(C)n(-c3ccccc3)c2=O)c(=O)n(-c2ccccc2)n1C", "target": "MALME-3M melanoma", "TGI": "> 100 µM"}
{"compound": "CCOC(=O)CC(=O)Nc1c(C(=O)OCC)sc2nc(SC)nc(Nc3ccc(OC)c(OC)c3)c12", "target": "MALME-3M melanoma", "TGI": "> 100 µM"}

Please turn your attention to the following entry.
Problem: Would you mind telling me what TGI value was observed for "CCC/C(Cl)=N/OC(=O)Nc1cccc(F)c1" ?
Result: 3.11 µM

---

system: NCI-H226 lung; experiment: NCI tumour cell line growth inhibition, 48 h
measuredQuantity: TGI (µM)
Report the value in µM with no unit label.

Some entries whose results are on file:
{"compound": "CCCN=C1S/C(=C/c2ccc(OC)c(OC)c2)C(=O)N1c1ccccc1", "target": "NCI-H226 lung", "observedMeasurement": 95}
{"compound": "C/C(=N\\NC(=S)Nc1ccccc1)c1ccccn1", "target": "NCI-H226 lung", "observedMeasurement": 2.13}

Problem: Would you mind telling me what TGI value was observed for "N=C(N)c1ccc(-c2ccc(-c3ccccc3)o2)cc1" ?
Result: 27.7

Problem: Would you mind telling me what TGI value was observed for COC(=O)C1CCCCCCCCCCC12SCCCS2 (stereo not given) ?
Result: 42.8

---

system: MALME-3M melanoma; assay: NCI tumour cell line growth inhibition, 48 h
measuredQuantity: TGI (µM)
Report the value in µM with no unit label.

{"compound": "C=C1C(=O)C23C(O)C1CCC2C12CO[C@]3(O)[C@@H](O)C1C(C)(C)CCC2O (stereo not given in full)", "observedMeasurement": 17.5}

Problem: Would you mind telling me what TGI value was observed for "O=[N+]([O-])c1ccc(N=Nc2c(O)[nH]c3ccc(Br)cc23)c([N+](=O)[O-])c1" ?
Result: 15

---

system: UACC-257 melanoma; assay: NCI tumour cell line growth inhibition, 48 h
measuredQuantity: TGI

{"compound": "Fc1cccc(C=NC23CC4CC(CC(C4)C2)C3)c1", "target": "UACC-257 melanoma", "TGI": "> 100 µM"}
{"compound": "COc1ccc2c(c1)CC[C@@H]1C2CC[C@]2(C)C(=O)N(C)C(=O)CC12 (stereo partly specified)", "target": "UACC-257 melanoma", "TGI": "> 100 µM"}
{"compound": "O=C1Nc2ccccc2/C1=C\\c1c(Cl)[nH]c2ccccc12", "target": "UACC-257 melanoma", "TGI": "17 µM"}
{"compound": "Cn1cccc1C1CC(=O)N(CCC[Se]C#N)C1=O (stereo unspecified)", "target": "UACC-257 melanoma", "TGI": "4.73 µM"}
{"compound": "COC(=O)C1(Cc2ccccc2C)Cc2ccc(C)cc2C1=O (stereo unspecified)", "target": "UACC-257 melanoma", "TGI": "> 100 µM"}

Please turn your attention to the following entry.
Problem: Under UACC-257 melanoma: TGI value of "COc1cc(-c2cn(-c3ccc(Cl)cc3)c(=O)n2-c2ccccc2)cc(OC)c1OC" ?
Result: > 100 µM

---

The reader will find reported TGI values listed item by item below.
tested on: M14 melanoma; assay: NCI tumour cell line growth inhibition, 48 h

{"molecule": "CCCN=C1S/C(=C/c2ccc(OC)c(OC)c2)C(=O)N1c1ccccc1", "target": "M14 melanoma", "TGI": "> 100 µM"}
{"molecule": "COc1ccc(C(NCCNC(c2ccc(OC)c(OC)c2)c2cc3c(cc2O)OCO3)c2cc3c(cc2O)OCO3)cc1OC (stereo unspecified)", "target": "M14 melanoma", "TGI": "8.39 µM"}
{"molecule": "CC1=NN(c2ccccc2Cl)C2(C1)SCC(=O)N2c1nc2ccccc2s1 (stereo unspecified)", "target": "M14 melanoma", "TGI": "> 100 µM"}
{"molecule": "COc1cc(C2c3cc4c(cc3[C@@H](OCCN)[C@H]3COC(=O)C23)OCO4)cc(OC)c1O (stereo partly specified)", "target": "M14 melanoma", "TGI": "3.34 µM"}
{"molecule": "O=C1C2=Cc3ccccc3CCN2c2ccc([N+](=O)[O-])cc21", "target": "M14 melanoma", "TGI": "> 100 µM"}
{"molecule": "CNS(=O)(=O)NN(C)S(=O)(=O)c1ccc(C)cc1", "target": "M14 melanoma", "TGI": "> 100 µM"}

Problem: Would you mind telling me what TGI value was observed for "O=S(=O)(Nc1ccc2ccc3cccc4ccc1c2c34)c1ccccc1" ?
Result: > 100 µM

Problem: Would you mind telling me what TGI value was observed for "c1ccc(CNc2nc(Nc3ccc(-c4nc5ccccc5[nH]4)cc3)c3cn[nH]c3n2)cc1" ?
Result: 3.81 µM

Problem: Would you mind telling me what TGI value was observed for "N#Cc1c(-c2ccccc2)cc(Nc2ccc(F)cc2)n2c1nc1ccccc12" ?
Result: > 100 µM

Problem: Would you mind telling me what TGI value was observed for "NC(=O)OCc1c(O)c2c(c(O)c1COC(N)=O)C(=O)C=CC2=O" ?
Result: > 100 µM

Problem: Would you mind telling me what TGI value was observed for "CCOc1ccc(NC(=O)/C(=C/c2ccccc2)C(C)=O)cc1" ?
Result: 26 µM

Problem: Would you mind telling me what TGI value was observed for O=C1NC(c2ccccc2)C1N(Cc1ccccc1)Cc1ccccc1 (stereo unspecified) ?
Result: > 100 µM

Problem: Would you mind telling me what TGI value was observed for "Cc1[nH]c2ncn(N)c(=N)c2c1Cc1ccccc1" ?
Result: > 100 µM

---

The reader will find reported GI50 values listed item by item below.
test system: LOX IMVI melanoma; assay: NCI tumour cell line growth inhibition, 48 h

{"compound": "CCN(CC)c1ccc(/C=C/C2=[N+](C)c3ccccc3C2(C)C)cc1", "target": "LOX IMVI melanoma", "GI50": "0.251 µM"}

Problem: Under LOX IMVI melanoma: GI50 value of "COc1cc(-c2cn(-c3ccc(Cl)cc3)c(=O)n2-c2ccccc2)cc(OC)c1OC" ?
Result: 46.2 µM

Problem: Under LOX IMVI melanoma: GI50 value of "O=C(Nc1ccc(-n2cc(-c3ccncc3)c(-c3ccc(O)c(Cl)c3)n2)cc1)c1ccc(Cl)c(Cl)c1" ?
Result: 0.779 µM

Problem: Under LOX IMVI melanoma: GI50 value of COc1cccc(C2C3=C(COC3=O)N(CCO)c3cc4c(cc32)CCC4)c1 (stereo not given) ?
Result: 0.0934 µM

Problem: Under LOX IMVI melanoma: GI50 value of CC1OC(OC2C(OC3CCC4(C)C(CCC5(C)C4CC=C4C6CC(C)(C)CCC6(CO)C(O)CC45C)C3(C)C)OC(C(=O)O)C(OC3OC(COC4OC(CO)C(O)C(O)C4O)C(O)C(O)C3O)C2O)C(O)C(O)C1O (stereo not given) ?
Result: 10.7 µM

Problem: Under LOX IMVI melanoma: GI50 value of "COc1ccc2c(c1)C(=O)/C(=C/c1ccc(OCC(=O)c3ccc(Cl)cc3)cc1)O2" ?
Result: 5.44 µM
